Target: T1, human PRLR (Biacore antigen) (human, UniProt P16471 25-234, limits assumed)
T1 construct: The construct injected over captured antibody is not described (a soluble form is likely); also called huPRLR
T1 sequence: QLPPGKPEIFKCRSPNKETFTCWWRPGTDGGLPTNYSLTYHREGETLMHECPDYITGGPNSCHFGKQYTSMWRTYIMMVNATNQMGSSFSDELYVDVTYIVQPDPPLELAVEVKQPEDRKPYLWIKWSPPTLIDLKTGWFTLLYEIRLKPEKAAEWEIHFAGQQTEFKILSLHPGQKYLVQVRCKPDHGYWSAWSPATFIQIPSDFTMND
Test: SPR simultaneous binding; PRLR held by surface mAb chAb8
// reported solution mAb binding, % of PRLR binding for each item listed
Quick note: give the figure in %, leave out the unit.

Before answering, review these 5 worked examples.
{"columns": ["Binder", "Value"],
 "data": [
  ["chAb5 (antibody, human IgG1, kappa, V domains shown, chimeric, murine variable and human G1/kappa constant regions) VH: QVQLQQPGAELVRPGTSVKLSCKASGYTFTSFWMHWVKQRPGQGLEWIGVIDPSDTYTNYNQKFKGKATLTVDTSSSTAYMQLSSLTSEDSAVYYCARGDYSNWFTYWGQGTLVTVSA VL: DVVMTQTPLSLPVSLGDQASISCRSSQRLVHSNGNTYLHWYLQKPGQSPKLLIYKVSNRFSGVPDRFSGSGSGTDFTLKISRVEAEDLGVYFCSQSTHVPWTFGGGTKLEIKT", 7],
  ["chAb7 (antibody, human IgG1, kappa, V domains shown, chimeric, murine variable and human G1/kappa constant regions) VH: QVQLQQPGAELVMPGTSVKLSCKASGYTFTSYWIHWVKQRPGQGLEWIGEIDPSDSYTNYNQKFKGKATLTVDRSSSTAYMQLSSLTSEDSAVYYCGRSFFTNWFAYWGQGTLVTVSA VL: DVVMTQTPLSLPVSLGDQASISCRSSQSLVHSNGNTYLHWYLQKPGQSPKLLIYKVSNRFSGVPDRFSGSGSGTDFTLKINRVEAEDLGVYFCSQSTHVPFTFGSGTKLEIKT", 2],
  ["Ab39 (antibody, human IgG1, kappa, V domains shown, humanized from Ab7; G1; also called Ab4 HC.1a and Ab4 LC.1a) VH: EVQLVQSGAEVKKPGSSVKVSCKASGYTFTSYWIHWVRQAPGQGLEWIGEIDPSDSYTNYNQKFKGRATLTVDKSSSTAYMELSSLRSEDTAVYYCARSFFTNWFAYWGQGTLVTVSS VL: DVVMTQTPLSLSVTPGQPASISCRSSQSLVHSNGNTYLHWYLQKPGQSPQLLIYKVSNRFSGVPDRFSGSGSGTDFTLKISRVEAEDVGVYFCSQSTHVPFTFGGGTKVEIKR", 1],
  ["Ab48 (antibody, human IgG1, kappa, V domains shown, humanized from Ab8; G1; also called Ab3 HC.1a and Ab3 LC.1a) VH: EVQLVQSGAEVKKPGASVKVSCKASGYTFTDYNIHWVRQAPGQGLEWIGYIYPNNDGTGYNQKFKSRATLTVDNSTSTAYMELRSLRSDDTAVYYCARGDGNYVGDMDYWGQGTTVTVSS VL: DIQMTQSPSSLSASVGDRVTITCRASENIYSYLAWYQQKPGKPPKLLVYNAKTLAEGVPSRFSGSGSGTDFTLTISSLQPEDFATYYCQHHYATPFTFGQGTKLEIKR", -1],
  ["Ab19 (antibody, human IgG1, kappa, V domains shown, humanized from Ab6; G1; also called Ab1 HC.1a and Ab1 LC.1a) VH: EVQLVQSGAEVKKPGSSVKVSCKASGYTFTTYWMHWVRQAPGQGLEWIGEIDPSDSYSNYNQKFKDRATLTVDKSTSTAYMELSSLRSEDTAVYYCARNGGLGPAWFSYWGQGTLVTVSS VL: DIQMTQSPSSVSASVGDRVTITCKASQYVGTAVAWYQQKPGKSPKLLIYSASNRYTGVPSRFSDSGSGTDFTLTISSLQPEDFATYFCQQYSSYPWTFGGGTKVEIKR", 0]
]}

Attention now turns to another entry.
*Q* # lookup: solution mAb binding, % of PRLR binding of Ab30 (antibody, human IgG1, kappa, V domains shown, humanized from Ab5; G1; also called Ab2 HC.1a and Ab2 LC.1a) VH: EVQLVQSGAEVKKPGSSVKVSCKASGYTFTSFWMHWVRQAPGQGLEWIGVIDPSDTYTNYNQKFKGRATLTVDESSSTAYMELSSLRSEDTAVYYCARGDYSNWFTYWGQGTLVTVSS VL: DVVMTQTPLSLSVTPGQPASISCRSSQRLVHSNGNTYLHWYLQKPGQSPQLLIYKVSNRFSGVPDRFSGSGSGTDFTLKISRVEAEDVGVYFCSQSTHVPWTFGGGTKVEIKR
*A* 6
